- experimental_target: T1, human CD137-Fc (human, biotin-labeled)
- T1 construct: if 90 already holds the Fc, drop the second piece; also called biotin-labeled human CD137 fused to human IgG1 Fc fragment; biotin-human CD137-Fc; not shown: human IgG1 Fc fragment
- T1 sequence (chain, as listed by the source): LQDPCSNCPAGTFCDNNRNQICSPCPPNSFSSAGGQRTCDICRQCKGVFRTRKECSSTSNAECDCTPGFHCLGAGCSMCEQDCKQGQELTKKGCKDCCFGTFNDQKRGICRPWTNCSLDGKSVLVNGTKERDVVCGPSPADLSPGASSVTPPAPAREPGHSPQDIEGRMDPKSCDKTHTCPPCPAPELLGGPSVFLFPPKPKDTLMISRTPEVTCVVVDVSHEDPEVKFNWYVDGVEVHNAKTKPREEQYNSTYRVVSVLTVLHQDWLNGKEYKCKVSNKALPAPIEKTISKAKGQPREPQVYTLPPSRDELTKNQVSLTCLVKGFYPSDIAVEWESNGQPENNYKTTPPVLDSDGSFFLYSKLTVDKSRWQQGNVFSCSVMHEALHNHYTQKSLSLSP
- protocol: bead ELISA on biotin-human CD137-Fc, 0 pmol free CD3e peptide
Is ELISA signal at least 50000? Then 1 (yes). If not, 0 (no).

[[record]]
binder = "dBBDu167 (antibody, V domains shown, Human IgG1; light chain GLS3000 (kappa)) VH: QVQLVESGGGLVQPGRSLRLSCAASGFTFSNAWMHWVRQAPGKGLEWVAQIKDKGNLYAAYYAPSVKGRFTISRDDSKNSIYLQMNSLKTEDTAVYYCHYVHYASAGGGLPGFGVDAWGQGTTVTVSS VL: DIVMTQSPLSLPVTPGEPASISCRSSQSLVHSNRNTYLHWYQQKPGQAPRLLIYKVSNRFSGVPDRFSGSGSGTDFTLKISRVEAEDVGVYYCGQGTQVPYTFGQGTKLEIK"
discrete_label = "0 (no)"

[[record]]
binder = "DADU01_3#018 (antibody, V domains shown, Human IgG1; light chain GLS3000 (kappa); also called dBBDu123) VH: QVQLVESGGGLVQPGRSLRLSCAASGFTFSNAWMHWVRQAPGKGLEWVAQIKDRANSYNAYYAPSVKGRFTISRDDSKNSIYLQMNSLKTEDTAVYYCHYVHYSAASTLLPSFGVDAWGQGTTVTVSS VL: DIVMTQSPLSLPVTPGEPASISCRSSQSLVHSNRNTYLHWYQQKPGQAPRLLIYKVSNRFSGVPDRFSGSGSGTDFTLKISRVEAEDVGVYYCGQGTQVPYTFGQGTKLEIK"
discrete_label = "0 (no)"

[[record]]
binder = "dBBDu205 (antibody, V domains shown, Human IgG1; light chain GLS3000 (kappa)) VH: QVQLVESGGGLVQPGRSLRLSCAASGFTFSNAWMHWVRQAPGKGLEWVAQIKDRSQLYAAYYAPSVKGRFTISRDDSKNSIYLQMNSLKTEDTAVYYCHYVHYASASTVLPAFGVDAWGQGTTVTVSS VL: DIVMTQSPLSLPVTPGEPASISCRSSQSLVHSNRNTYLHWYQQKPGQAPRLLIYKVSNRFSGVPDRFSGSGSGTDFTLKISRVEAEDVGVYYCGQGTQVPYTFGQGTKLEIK"
discrete_label = "0 (no)"

[[record]]
binder = "dBBDu199 (antibody, V domains shown, Human IgG1; light chain GLS3000 (kappa)) VH: QVQLVESGGGLVQPGRSLRLSCAASGFTFSNAWMHWVRQAPGKGLEWVAQIKDKQSGYNTYYAPSVKGRFTISRDDSKNSIYLQMNSLKTEDTAVYYCHYVHYASASTVLPAFGVDAWGQGTTVTVSS VL: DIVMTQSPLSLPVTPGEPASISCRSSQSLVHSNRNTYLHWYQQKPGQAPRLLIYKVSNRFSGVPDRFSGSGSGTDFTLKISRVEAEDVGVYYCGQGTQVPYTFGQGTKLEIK"
discrete_label = "0 (no)"

[[record]]
binder = "anti-human CD137 antibody described in WO2005/035584A1 (abbreviated as B) (antibody, V domains shown, Control antibody; also called control anti-CD137 antibody) VH: QVQLQQWGAGLLKPSETLSLTCAVYGGSFSGYYWSWIRQSPEKGLEWIGEINHGGYVTYNPSLESRVTISVDTSKNQFSLKLSSVTAADTAVYYCARDYGPGNYDWYFDLWGRGTLVTVSS VL: EIVLTQSPATLSLSPGERATLSCRASQSVSSYLAWYQQKPGQAPRLLIYDASNRATGIPARFSGSGSGTDFTLTISSLEPEDFAVYYCQQRSNWPPALTFGGGTKVEIK"
discrete_label = "1 (yes)"

